Molecular target: UniProtKB P28647
Sequence (P28647 whole entry): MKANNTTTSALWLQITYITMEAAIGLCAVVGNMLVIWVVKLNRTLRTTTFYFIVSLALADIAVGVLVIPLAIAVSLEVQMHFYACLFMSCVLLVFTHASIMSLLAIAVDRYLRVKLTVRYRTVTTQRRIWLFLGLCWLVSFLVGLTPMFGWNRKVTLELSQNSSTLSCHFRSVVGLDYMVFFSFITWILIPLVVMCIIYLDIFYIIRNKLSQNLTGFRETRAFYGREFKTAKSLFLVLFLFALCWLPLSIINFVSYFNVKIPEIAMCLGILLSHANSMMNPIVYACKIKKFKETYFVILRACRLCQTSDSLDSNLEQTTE
Across several publications, the following Ki results were reported for UniProtKB P28647.
Numbers only, in µM.

>  <smiles notation>
C[C@@H](Cc1ccccc1)Nc1ncnc2c1ncn2[C@]1(C)O[C@H](CO)[C@@H](O)[C@H]1O

>  <measurement unit>
µM

>  <Ki>
6.16

$$$$
>  <smiles notation>
Cc1ccc2c(O)cc(-c3ccccc3F)nc2n1

>  <measurement unit>
µM

>  <Ki>
4.6

$$$$
>  <smiles notation>
CCCOC(=O)c1c(CCC)c(C(=O)SCC)c(CC)[n+](C)c1-c1ccccc1

>  <measurement unit>
µM

>  <Ki>
4.26

$$$$
>  <smiles notation>
CN(C)C(=O)[C@H]1S[C@@H](n2cnc3c(NCc4cccc(I)c4)nc(Cl)nc32)[C@H](O)[C@@H]1O

>  <measurement unit>
µM

>  <Ki>
0.321

$$$$

Here's the next entry for you.
# Ki lookup, item CCCn1c(=O)c2nc(-c3ccc(OCC(=O)NCC(=O)O)cc3)[nH]c2n(CCC)c1=O 58.5

====

Biological target: Adenosine receptor A3 (Rattus norvegicus)
Sequence (P28647 whole entry): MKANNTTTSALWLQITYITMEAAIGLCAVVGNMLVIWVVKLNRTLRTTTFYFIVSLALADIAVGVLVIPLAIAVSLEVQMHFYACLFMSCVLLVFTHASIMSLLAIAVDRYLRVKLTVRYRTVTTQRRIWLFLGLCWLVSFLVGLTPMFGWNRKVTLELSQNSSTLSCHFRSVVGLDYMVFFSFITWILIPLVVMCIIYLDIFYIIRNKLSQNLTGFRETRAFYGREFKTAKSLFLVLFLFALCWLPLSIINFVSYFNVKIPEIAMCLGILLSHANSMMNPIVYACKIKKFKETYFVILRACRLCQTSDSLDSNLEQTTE
// merged dataset of Ki values, system = Adenosine receptor A3 (Rattus norvegicus), multiple refs
One number for each entry, in µM.

>  <compound>
CCCn1c(=O)c2[nH]c(C3CCCC3)nc2n(CCC)c1=O

>  <observation type>
Ki

>  <measurement unit>
µM

>  <result value>
5.29

$$$$
>  <compound>
CCCCCNC(=O)[C@H]1O[C@@H](n2cnc3c(N)ncnc32)[C@H](O)[C@@H]1O

>  <observation type>
Ki

>  <measurement unit>
µM

>  <result value>
5.56

$$$$
>  <compound>
CNc1ncnc2c1ncn2[C@@H]1O[C@H](CO)[C@@H](O)[C@H]1O

>  <observation type>
Ki

>  <measurement unit>
µM

>  <result value>
6.4

$$$$
>  <compound>
CNC(=O)[C@H]1OC(n2cnc3c(NCc4cccc(I)c4)ncnc32)[C@](C)(O)[C@@H]1O (some centres undefined)

>  <observation type>
Ki

>  <measurement unit>
µM

>  <result value>
0.32

$$$$

# map each compound to its Ki
1. CCCn1c(=O)[nH]c(=O)c2[nH]cnc21
2. CCCn1c(=O)c2nc(-c3ccc(OCC(=O)O)cc3)[nH]c2n(Cc2ccc(N)c(I)c2)c1=O

[65, 1.17]
